Reported log10PFU/ml values follow for various compounds
system: Influenza A virus; assay: Anti-viral activity against Influenza A virus H3N2 A/Hong Kong/11/1968 infected in human A549 cells assessed as log reduction in viral titer at 1 uM incubated with compound and virus for 1 hr followed by inoculum removal and media replacement with compound measured after 48 hrs by extracting viral supernatant from cells and transferring supernatant to MDCK cells for measuring plaque formation; format: functional; conditions: time 49 hrs
Respond using a number only.

Reference set (6 entries):
CCOC(=O)c1c(CSc2ccccc2)n(C)c2cc(Br)c(O)c(CN(C)C)c12 : 1.5
COCOc1ccc(-c2nc3ncccn3c2NC2CCCCC2)c(F)c1 : 1.5
Oc1ccc(-c2nc3ncccn3c2NC2CCCCC2)c(F)c1 : 1.5
Clc1cnc2nc(-c3ccccc3)c(NC3CCCCC3)n2c1 : 1.5
COc1cc(OC)cc(-c2nc3ncccn3c2NC2CCCCC2)c1 : 1.5
Fc1cc(OCc2ccc(C(F)(F)F)cc2)ccc1-c1nc2ncccn2c1NC1CCCCC1 : 1.5

Attention now turns to another entry.
### Prompt Value wanted: log10PFU/ml (Influenza A virus) of entry `Fc1ccc(-c2nc3ncccn3c2NC2CCCCC2)cc1N1CCOCC1`
### Response 1.5
